- STUDY_SYSTEM: T1, recombinant human ASM protein (human, UniProt P17405 47-630)
- T1 construct: Recombinant human ASM in solution; also called acid sphingomyelinase (ASM) protein
- T1 sequence: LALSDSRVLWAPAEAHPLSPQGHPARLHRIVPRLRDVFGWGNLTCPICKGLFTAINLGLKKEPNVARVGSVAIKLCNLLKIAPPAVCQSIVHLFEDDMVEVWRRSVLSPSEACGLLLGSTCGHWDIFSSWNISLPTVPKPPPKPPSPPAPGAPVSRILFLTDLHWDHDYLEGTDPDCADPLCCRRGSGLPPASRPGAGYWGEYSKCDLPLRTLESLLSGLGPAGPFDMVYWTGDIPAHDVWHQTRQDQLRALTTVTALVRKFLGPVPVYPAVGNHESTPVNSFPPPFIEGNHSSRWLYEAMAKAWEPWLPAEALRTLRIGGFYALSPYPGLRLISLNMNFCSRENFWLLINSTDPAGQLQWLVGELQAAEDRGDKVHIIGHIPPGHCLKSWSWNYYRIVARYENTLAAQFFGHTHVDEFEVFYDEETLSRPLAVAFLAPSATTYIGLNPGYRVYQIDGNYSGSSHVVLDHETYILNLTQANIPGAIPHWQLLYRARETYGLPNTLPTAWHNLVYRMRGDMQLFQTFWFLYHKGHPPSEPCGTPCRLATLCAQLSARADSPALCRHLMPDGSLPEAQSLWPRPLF
- ASSAY_OVERVIEW: BLI (Octet), antibody on AHC sensor
OBSERVED_PROPERTY: koff (s⁻¹)
Give the quantity in s⁻¹, number only.

Qu. Output measured koff for this item: #9104a-B8 (antibody, human IgG4 S228P, lambda, V domains shown, VH of #9104v-H33 with VL of #9104v-L21; full-length IgG, lambda) VH: EVQLLESGGGLVQPGGSLRLSCAASGFTFSNYYMSWVRQAPGKGLEWVSGVYYPSGNPYYADSVKGRFTISRDNSKNTLYLQMNSLRAEDTAVYYCARDTPGFDYWGQGTLVTVSS VL: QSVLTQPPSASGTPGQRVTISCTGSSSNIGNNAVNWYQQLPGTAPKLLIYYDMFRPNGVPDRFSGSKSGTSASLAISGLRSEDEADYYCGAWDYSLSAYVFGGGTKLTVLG
Ans. 6.44e-05

Qu. Output measured koff for this item: #9104a-D3 (antibody, human IgG4 S228P, lambda, V domains shown, VH of #9104v-H13 with VL of #9104v-L64; full-length IgG, lambda) VH: EVQLLESGGGLVQPGGSLRLSCAASGFTFSNYYMSWVRQAPGKGLEWVSGIYYGSGIPYYANSVKGRFTISRDNSKNTLYLQMNSLRAEDTAVYYCARDTPGFDYWGQGTLVTVSS VL: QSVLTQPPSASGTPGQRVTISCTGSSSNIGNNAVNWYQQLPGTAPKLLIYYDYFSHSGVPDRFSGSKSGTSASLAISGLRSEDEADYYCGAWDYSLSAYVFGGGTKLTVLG
Ans. 6.73e-05

Qu. Output measured koff for this item: #9104a-B6 (antibody, human IgG4 S228P, lambda, V domains shown, VH of #9104v-H27 with VL of #9104v-L21; full-length IgG, lambda) VH: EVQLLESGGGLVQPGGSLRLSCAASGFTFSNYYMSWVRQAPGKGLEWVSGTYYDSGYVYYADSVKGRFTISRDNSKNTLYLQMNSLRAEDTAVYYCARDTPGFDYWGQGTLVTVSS VL: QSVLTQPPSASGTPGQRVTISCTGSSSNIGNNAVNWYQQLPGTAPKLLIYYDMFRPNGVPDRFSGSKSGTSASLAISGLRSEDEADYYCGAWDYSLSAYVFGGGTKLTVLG
Ans. 9.41e-05

Qu. Output measured koff for this item: #9104a-A6 (antibody, human IgG4 S228P, lambda, V domains shown, VH of #9104v-H27 with VL of #9104v-L20; full-length IgG, lambda) VH: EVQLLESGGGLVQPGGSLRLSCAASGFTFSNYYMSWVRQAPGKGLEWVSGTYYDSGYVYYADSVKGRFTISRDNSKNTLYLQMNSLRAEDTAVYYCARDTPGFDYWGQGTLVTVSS VL: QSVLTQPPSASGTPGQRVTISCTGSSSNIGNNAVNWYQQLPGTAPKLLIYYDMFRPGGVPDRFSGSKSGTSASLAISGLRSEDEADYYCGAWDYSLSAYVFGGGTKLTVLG
Ans. 6.96e-05
